# Tested on: MS2 coat protein
# PROCEDURE_SUMMARY: apparent KD of MS2 coat protein; designed switch direction (-1 OFF switch, 1 ON switch): -1; higher = weaker reporter binding
# CONDITIONS: input ligand: microRNA oligo, concentration not stated
MEASURED_QUANTITY: apparent KD of MS2 coat protein (nM)
// return numeric value only (unit: nM, not printed)

// worked examples, apparent KD of MS2 coat protein included
INSERT INTO results (chain_sequence, study_target, units_symbol, test_value) VALUES
  ('AUAAAUCAUGUAGGAUAUGCGUGGCAAAGCUAUGCAGAAGGACAUGAGGAUCACCCAUGUGCUUCCGUCUGAGAACAGACGGUA [Mat - Exclusion NG 1 - Mod of JL - D24] (Eterna round: R96, puzzle: Exclusion NG 1)', 'MS2 coat protein', 'nM', 61.6),
  ('UCAUACGGUGAGGAUAUCUCCGCUAAAGUGUGUAGAGAAGGCGCUACAUGAGGAUCACCCAUGUUUAUGGGCAG [Ex-6 Malc#12] (Eterna round: R96, puzzle: Exclusion 6)', 'MS2 coat protein', 'nM', 271);

# ---- query sequence ----
get_value(item= UUCGUGCAGCUUUGCUGUACGAGUACAUGAGGAUCACCCAUGUAGGAUAUGGUACGCUUUGCGUGCCAGAAGGACGUGCGUUAG [salish99_ExNG3_r04_002] (Eterna round: R96, puzzle: Exclusion NG 3) , readout=apparent KD of MS2 coat protein) returns 34.1

Data provenance: the supplement of paper PMC9170038
